tested-target: T1, (FUS-ZF)x2 (Xenopus laevis, UniProt Q7ZXQ2 435-467)
T1 chain: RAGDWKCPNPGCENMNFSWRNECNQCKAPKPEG
method-description: ITC; ITC: 50 mM Tris pH 7.5, 150 mM NaCl, 1 mM DTT, 0.1 mM ZnCl2, 25 °C; BLI: 50 mM Tris pH 7.5, 150 mM NaCl, 1 mM DTT, 0.1% BSA, 0.02% Tween, 30 °C
test-conditions: protein: recombinant; tags: GST cleaved (HRV-3C)
property-label: Kd (nM)
Lab book: enter the figure in nM, no units written.

Exercise: Suppose we examine the binder AAAGGUGGUAAA (ssRNA) [(GGU)x2] ; what Kd value has been reported?
Solution: 200
